# Tested on: MDA-MB-468
# experimentDescription: Growth inhibition of human MDA-MB-468 cells assessed as cell viability measured after 4 days by WST8 assay
# Type: functional, cell-based
# settings: MDA-MB-468, 96 h
The following compounds are shown together with reported pIC50 values.
For clarity, pIC50 is expressed as the negative log10 of concentration in mol/L.

Field: example entries. Status: answers known.
CC(C)c1cnn2c(NCc3ccc(NC(=O)N4CCN(CCCCCc5cccc6c5CN(C5CCC(=O)NC5=O)C6=O)CC4)cc3)nc(OC3CCN(C)CC3)nc12 (stereo unspecified) ... 7.01
CC(C)c1cnn2c(NCc3ccc(NC(=O)CCCCCCOc4cccc5c4C(=O)N(C4CCC(=O)NC4=O)C5=O)cc3)nc(OC3CCN(C)CC3)nc12 (stereo unspecified) ... 6.74
CC(C)c1cnn2c(NCc3ccc(NC(=O)CCCCCN4CCN(CCCc5cccc6c5CN(C5CCC(=O)NC5=O)C6=O)CC4)cc3)nc(OC3CCN(C)CC3)nc12 (stereo unspecified) ... 6.62
CC(C)c1cnn2c(NCc3ccc(NC(=O)CCCCCCCCOc4cccc5c4CN(C4CCC(=O)NC4=O)C5=O)cc3)nc(OC3CCN(C)CC3)nc12 (stereo unspecified) ... 6.52

Next up:
Measured pIC50 of CC(C)c1cnn2c(NCc3ccc(NC(=O)CCCCCOc4cccc5c4C(=O)N(C4CCC(=O)NC4=O)C5)cc3)nc(OC3CCN(C)CC3)nc12 (stereo unspecified) : 6.33
